Target protein (sequence): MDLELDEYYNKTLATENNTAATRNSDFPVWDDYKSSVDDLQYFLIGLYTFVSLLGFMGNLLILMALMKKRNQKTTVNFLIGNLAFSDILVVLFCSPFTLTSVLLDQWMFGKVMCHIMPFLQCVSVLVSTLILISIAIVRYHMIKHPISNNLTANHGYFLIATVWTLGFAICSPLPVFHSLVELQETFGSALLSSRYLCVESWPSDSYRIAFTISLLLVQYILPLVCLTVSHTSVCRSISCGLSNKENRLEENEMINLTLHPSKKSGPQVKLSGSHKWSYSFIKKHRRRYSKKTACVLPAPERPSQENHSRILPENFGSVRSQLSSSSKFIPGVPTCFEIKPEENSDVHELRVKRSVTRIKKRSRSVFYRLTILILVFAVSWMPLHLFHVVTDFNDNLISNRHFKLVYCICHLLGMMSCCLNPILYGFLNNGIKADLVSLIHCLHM
Structures can show the parent of a compound that is named as a salt.
pIC50: recorded values
# reply with the number alone; pIC50 is -log10 of concentration in mol/L

Here's what some known entries look like.
>>> valueobserved("O=C1OC2(CCN(c3cc(-c4ccnc(-c5ccc(F)cc5)n4)[nH]n3)CC2)c2cnccc21")
8.66
>>> valueobserved("O=C1OC2(CCC(c3nn4nc(-c5ccccc5)cc4[nH]3)CC2)c2ccccc21 (stereo not drawn)")
8.74
>>> valueobserved("O=C1OC2(CCN(c3nc(-c4ccc5ccccc5c4)n[nH]3)CC2)c2ccccc21")
8.38

# return recorded pIC50 for entry O=C1OC2(CCC(c3cc(-c4cncc(-c5ccccc5)n4)[nH]n3)CC2)c2ccccc21 (stereo not drawn) 8.41

# return recorded pIC50 for entry O=C1OC2(CCN(c3nc(-c4ccc5ccccc5c4)c[nH]3)CC2)c2ccccc21 [Example 1, hydrochloride] 8.77

# return recorded pIC50 for entry O=C1OC2(CCN(c3cc(-c4ccnc(-c5ccccc5)c4)[nH]n3)CC2)c2ccccc21 8.77
